target: human TFPI alpha (full-length TFPIα) (human, UniProt P10646 29-304); assay: cell-based or functional assay
quantity: lag time (min), 200 nM mAb (2 x 100 nM), FVIII-neutralised plasma + 20 nM TFPIα
Write it as a number; the unit min goes unstated.

{"binder": "mAb 2F3 (antibody, V domains shown) VH: QVQLKQSGPGLVQPSQSLSITCTVSGFSLSSYGVHWVRQSPGKGLEWLGVIWRGGSTDFNAAFMSRVSFTKDNSKSQVFFKMNSLQADDTAIYYCAKNSHGNYVGYAMDYWGQGTSVTVSS VL: DIVMTQSQKFMSTTVGDKVSIPCKASENVGAAVAWYQQKPGQSPTLLIYSASNRYTGIPDRFTGSGSGTDFTLTIRTVQSEDLADYFCQQYTNYPTFGGGTKLEIKR", "observed.value": 5.8}
{"binder": "mAb 2F22 (antibody, V domains shown) VH: QVQLKQSGPGLVQPSQSLSITCTVSGFSLTNYGVHWVRQSPGKGLEWLAVIWRGGSIDYNAAFMSRLSITKDNSKSQVFFKMNSLQADDTAIYYCAKNSHGNYVGYAMDYWGQGTSVTVSS VL: GIVMTQSQKFMSTTVGDRVSITCKASQSVGPAVAWYQQKPGQSPKLLIYSASNRYTGVPDRFTGSGSGADFTLTISNLHSEDLADYFCQQYTSYPTFGGGTKLEIKR", "observed.value": 5.1}
{"binder": "mAb 4F110 (antibody, human IgG4 S228P, kappa, V domains shown) VH: QVQLQQSGAELVKPGASVKLSCKASGYTFISYYMYWVKQRPGQGLEWIGEINPSNGDTNLNEKFKSKATLTVDKSSSTVYMQLSSLTSEDSAVYYCTRWDRFDGFVYWGQGTLVTVSA VL: ETTVTQSPASLSMAIGGKVTIRCIISTNIDDDINWYQQKPGEPPKLLISEGNTLRPGVPSRFSSSGYGTDFVFTIENMLSEDVADYYCLQSDDLPYTFGGGTKLEIKR", "observed.value": 0}

Request: // lag time (min), 200 nM mAb (2 x 100 nM), FVIII-neutralised plasma + 20 nM TFPIα lookup, key: mAb 2F45 (antibody, V domains shown) VH: QVQLKQSGPGLVQPSQSLSISCTVSGFSLTGYGVHWIRQSPGKGLEWLGVIWRGGSIDYNAAFMSRLSITKDNSKSQVFFKMNSLQADDTAIYYCAKNSHGNYVGYAMDYWGQGTSVTVSS VL: DIVMTQSQKFMSTTVGDRVSITCKASQNVGTAVAWYQQKPGQSPELLIYSASNRYTRVPDRFTGSGSGTDFTLTISNMQSEDLADYFCQQYTSYPTFGGGTKLEIKR
Result: 9

Request: What do we get for mAb 1F91 (antibody, V domains shown) VH: DVQLQESGPGLVKPSQSLSLTCTVSGYSITSDYAWNWIRQFPGNKLEWMGYISYSGSTSYNPSLKSRISITRDTSKNQFFLQLNSVTTEDTATYYCARWAYDGPWGQGTLVTVSA VL: QIVLSQSPALLSASPGEKVTMTCRASSSVSHMHWYQQKPGSSPKPWIYATSNLASGVPARFSGSGSGTSYSLTITRVEAEDAATYYCQQWSSNPFTFGSGTKLEIKR ?
Result: 0
